Target: human TLR7 (Homo sapiens, UniProt Q9NYK1)
Sequence (Q9NYK1 27-1049): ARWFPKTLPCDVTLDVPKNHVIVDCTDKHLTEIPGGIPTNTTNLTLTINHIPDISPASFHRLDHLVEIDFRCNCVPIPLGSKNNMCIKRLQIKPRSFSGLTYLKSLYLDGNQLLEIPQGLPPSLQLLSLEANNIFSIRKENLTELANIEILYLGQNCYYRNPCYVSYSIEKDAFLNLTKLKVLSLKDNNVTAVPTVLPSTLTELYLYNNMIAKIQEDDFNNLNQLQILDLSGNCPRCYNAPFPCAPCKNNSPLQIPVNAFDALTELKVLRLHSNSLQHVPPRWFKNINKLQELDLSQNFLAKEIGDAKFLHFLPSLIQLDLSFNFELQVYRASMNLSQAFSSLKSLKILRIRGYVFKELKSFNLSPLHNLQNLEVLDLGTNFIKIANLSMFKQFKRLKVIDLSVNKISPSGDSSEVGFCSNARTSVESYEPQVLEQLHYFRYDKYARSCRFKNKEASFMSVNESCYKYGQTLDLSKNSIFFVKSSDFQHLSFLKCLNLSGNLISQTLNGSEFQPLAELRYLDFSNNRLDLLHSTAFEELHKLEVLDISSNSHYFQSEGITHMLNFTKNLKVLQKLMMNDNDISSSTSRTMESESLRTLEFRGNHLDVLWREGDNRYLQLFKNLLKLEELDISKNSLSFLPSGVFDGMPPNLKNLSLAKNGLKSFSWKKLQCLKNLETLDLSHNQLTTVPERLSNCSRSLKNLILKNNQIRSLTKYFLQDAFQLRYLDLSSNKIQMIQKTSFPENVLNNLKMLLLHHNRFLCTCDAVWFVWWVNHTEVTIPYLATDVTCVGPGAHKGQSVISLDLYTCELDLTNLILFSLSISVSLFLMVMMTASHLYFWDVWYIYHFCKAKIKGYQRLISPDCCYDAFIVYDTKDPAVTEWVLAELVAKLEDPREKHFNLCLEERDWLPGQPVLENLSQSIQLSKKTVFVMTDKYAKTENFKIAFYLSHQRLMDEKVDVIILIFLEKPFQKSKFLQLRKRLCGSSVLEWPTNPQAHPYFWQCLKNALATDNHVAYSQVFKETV
Experiment: TLR7 inhibition reporter assay (HEK-Blue SEAP)
Conditions: HEK-Blue cells overexpressing human TLR7, stimulated with gardiquimod 7.5 μM, 22 hour incubation
pIC50: −log10 of the molar value.
Assign class by pIC50: not lower than 8 means Met; lower than 8 means Not met.

INPUT: Entry Cc1cc(-c2cc3[nH]nc(C4CCN(CC(=O)N(C)C)CC4)c3cc2C(C)C)cn2ncnc12 : is its pIC50 no less than 8?
OUTPUT: Met

INPUT: State whether the measured pIC50 reaches 8, counting equality as reaching it, for Cc1cc2c(C3CCNCC3)n[nH]c2cc1-c1cc(C#N)c2ncnn2c1
OUTPUT: Not met

INPUT: Quick check: does Cc1cc2c(N)n[nH]c2cc1-c1cc(C)c2ncnn2c1 have pIC50 greater than or equal to 8?
OUTPUT: Not met

INPUT: Evaluate Cc1cc(-c2ccc3c(NC4CCNCC4)n[nH]c3c2)cn2ncnc12 : pIC50 at minimum 8?
OUTPUT: Not met

INPUT: API: above_or_equal(metric=pIC50, cutoff=8) for item CCc1cc(-c2cc(C)c3ncnn3c2)cc2[nH]nc(OC3CCC(N(C)C)CC3)c12 (single isomer, unassigned) [Example 169]
OUTPUT: Met

INPUT: Test whether the compound COc1cc(-c2ccc3c(C4CCNCC4)c[nH]c3c2)cn2ncnc12 records pIC50 of 8 or higher.
OUTPUT: Not met

INPUT: Hello, I need to know if CCCN1CCC(c2n[nH]c3cc(-c4cc(C)c5ncnn5c4)c(C(C)C)cc23)CC1 has measured pIC50 not below 8. Thanks!
OUTPUT: Met

INPUT: Decide: is the reported value of pIC50 for CCCN1CCC(c2n[nH]c3cc(-c4cc(C)c5ncnn5c4)c(C)cc23)CC1 equal to or greater than 8?
OUTPUT: Not met

INPUT: # check: pIC50 of Cc1cc2c(C3CCN(CC(C)(C)O)CC3)n[nH]c2cc1-c1cc(C)c2ncnn2c1 is greater than or equal to 8
OUTPUT: Not met

INPUT: Is reported pIC50 greater than or equal to 8 here: Cc1cc2c(C3CCN(C4CCOCC4)CC3)n[nH]c2cc1-c1cc(C)c2ncnn2c1
OUTPUT: Not met

INPUT: Textbook exercise: given the entry Cc1cc2c(C3CCNCC3)n[nH]c2cc1-c1cc(C)c2nnnn2c1 , state whether its pIC50 is greater than or equal to 8.
OUTPUT: Not met

INPUT: Evaluate Cc1cc(-c2cc3[nH]nc(C4CCC(N5CC6(COC6)C5)CC4)c3cc2C(C)C)cn2ncnc12 (single isomer, unassigned) [Example 129] : pIC50 at minimum 8?
OUTPUT: Met

INPUT: Could you verify whether the entry Cc1cc(-c2cc(C)c3ncnn3c2)cc2[nH]nc(OC3CCN(C)CC3)c12 shows pIC50 of no less than 8?
OUTPUT: Met

INPUT: Please indicate if the recorded pIC50 for CCc1cc(-c2cc(C)c3ncnn3c2)cc2[nH]nc(C3CCNCC3)c12 meets or exceeds 8.
OUTPUT: Met

INPUT: Evaluate Cc1cc(-c2cc3[nH]nc(C4CCC(NC5CC5)CC4)c3cc2C(C)C)cn2ncnc12 (single isomer, unassigned) [Example 118] : pIC50 at minimum 8?
OUTPUT: Met

INPUT: Could you tell me if the measured pIC50 of Cc1cc2c(C3CCCN(CC(=O)N(C)C)C3)n[nH]c2cc1-c1cc(C)c2ncnn2c1 (stereo not drawn) [Example 57] reaches 8 or more?
OUTPUT: Not met

INPUT: Is pIC50 for CCOC1CN(C2CCC(c3n[nH]c4cc(-c5cc(C)c6ncnn6c5)c(C(C)C)cc34)CC2)C1 (single isomer, unassigned) [Example 150] at or above 8?
OUTPUT: Met

INPUT: Is the recorded value of pIC50 equal to or greater than 8 for this compound? CCc1cc(-c2cc(C)c3ncnn3c2)cc2[nH]nc(C3CCN(CC(=O)N(C)C)CC3)c12
OUTPUT: Met

INPUT: Can Cc1cc(-c2cc3[nH]nc(C4CCC(NCC(=O)N(C)C)CC4)c3cc2C(C)C)cn2ncnc12 (single isomer, unassigned) [Example 125] be said to have pIC50 at or above 8?
OUTPUT: Met

INPUT: Confirm if pIC50 reported for the compound CCc1cc2c(C3CCC(N(C)C)CC3)n[nH]c2cc1-c1cc(C)c2ncnn2c1 (single isomer, unassigned) [Example 93] is 8 or above.
OUTPUT: Met

INPUT: Exam item: decide whether the reported pIC50 for CCc1cc2c(C3CCC(NCC(=O)N(C)C)CC3)n[nH]c2cc1-c1cc(C)c2ncnn2c1 (stereo not drawn) [Example 95] is at least 8.
OUTPUT: Met

INPUT: Hello, I need to know if Cc1cc(-c2cc3[nH]nc(C4CCC(N5CCC5)CC4)c3cc2C(C)C)cn2ncnc12 (single isomer, unassigned) [Example 138] has measured pIC50 not below 8. Thanks!
OUTPUT: Met

---

Target: human TLR9 (Homo sapiens)
Sequence (Q9NR96 26-1032): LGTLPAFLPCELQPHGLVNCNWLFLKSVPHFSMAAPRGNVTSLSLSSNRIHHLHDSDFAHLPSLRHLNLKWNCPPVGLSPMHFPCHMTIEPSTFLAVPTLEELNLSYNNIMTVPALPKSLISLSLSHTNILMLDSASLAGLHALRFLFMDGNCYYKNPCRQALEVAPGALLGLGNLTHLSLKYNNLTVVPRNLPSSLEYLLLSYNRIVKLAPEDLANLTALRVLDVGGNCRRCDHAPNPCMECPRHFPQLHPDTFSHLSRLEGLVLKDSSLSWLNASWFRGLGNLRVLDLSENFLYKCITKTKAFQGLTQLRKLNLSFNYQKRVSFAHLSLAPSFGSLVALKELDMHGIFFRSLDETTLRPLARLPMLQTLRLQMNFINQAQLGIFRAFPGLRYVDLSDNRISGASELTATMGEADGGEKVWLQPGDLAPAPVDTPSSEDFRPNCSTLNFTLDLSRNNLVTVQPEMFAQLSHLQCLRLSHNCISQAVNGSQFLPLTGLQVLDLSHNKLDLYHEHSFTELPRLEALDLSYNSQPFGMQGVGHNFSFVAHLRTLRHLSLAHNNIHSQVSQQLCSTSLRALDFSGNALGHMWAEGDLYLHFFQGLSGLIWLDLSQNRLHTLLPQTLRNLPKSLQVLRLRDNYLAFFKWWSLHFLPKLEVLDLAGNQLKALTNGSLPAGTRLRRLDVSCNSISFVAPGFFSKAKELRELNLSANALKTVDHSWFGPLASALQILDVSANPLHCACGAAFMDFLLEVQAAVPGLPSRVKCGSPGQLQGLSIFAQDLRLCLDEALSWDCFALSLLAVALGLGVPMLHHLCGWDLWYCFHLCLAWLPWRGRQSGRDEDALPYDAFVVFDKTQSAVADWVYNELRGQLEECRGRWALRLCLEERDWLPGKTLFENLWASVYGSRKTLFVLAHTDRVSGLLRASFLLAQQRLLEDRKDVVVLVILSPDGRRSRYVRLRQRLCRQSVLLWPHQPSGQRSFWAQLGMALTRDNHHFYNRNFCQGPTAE
Assay: TLR9 inhibition reporter assay (HEK-Blue SEAP)
Conditions: HEK-Blue cells overexpressing human TLR9, stimulated with ODN2006 5 nM, 22 hour incubation
What IC50 was measured for each of the following?
Give just the numeric value; µM need not be written.

INPUT: Output measured IC50 for this item: Cc1cc2c(C3CCCNC3)n[nH]c2cc1-c1ccc2ncnn2c1 (stereo not shown) [Example 58]
OUTPUT: 0.661

INPUT: Give me measured IC50, please, for this molecule: CCc1cc2c(C3CCC(NCCS(C)(=O)=O)CC3)n[nH]c2cc1-c1cc(C)c2ncnn2c1 (single isomer, unassigned) [Example 99]
OUTPUT: 14

INPUT: Could you please provide reported IC50 for Cc1cc2c(C3CCC(NC(C)C)CC3)n[nH]c2cc1-c1cc(C)c2ncnn2c1 (single isomer, unassigned) [Example 39] ? Thanks!
OUTPUT: 4.12

INPUT: Give the measured IC50 for Cc1cc(-c2cc3[nH]nc(C4CCC(NC5CC5)CC4)c3cc2C(C)C)cn2ncnc12 (single isomer, unassigned) [Example 119]
OUTPUT: 4.92

---

Target: human TLR8 (Homo sapiens, UniProt Q9NR97)
Sequence (Q9NR97 27-1041): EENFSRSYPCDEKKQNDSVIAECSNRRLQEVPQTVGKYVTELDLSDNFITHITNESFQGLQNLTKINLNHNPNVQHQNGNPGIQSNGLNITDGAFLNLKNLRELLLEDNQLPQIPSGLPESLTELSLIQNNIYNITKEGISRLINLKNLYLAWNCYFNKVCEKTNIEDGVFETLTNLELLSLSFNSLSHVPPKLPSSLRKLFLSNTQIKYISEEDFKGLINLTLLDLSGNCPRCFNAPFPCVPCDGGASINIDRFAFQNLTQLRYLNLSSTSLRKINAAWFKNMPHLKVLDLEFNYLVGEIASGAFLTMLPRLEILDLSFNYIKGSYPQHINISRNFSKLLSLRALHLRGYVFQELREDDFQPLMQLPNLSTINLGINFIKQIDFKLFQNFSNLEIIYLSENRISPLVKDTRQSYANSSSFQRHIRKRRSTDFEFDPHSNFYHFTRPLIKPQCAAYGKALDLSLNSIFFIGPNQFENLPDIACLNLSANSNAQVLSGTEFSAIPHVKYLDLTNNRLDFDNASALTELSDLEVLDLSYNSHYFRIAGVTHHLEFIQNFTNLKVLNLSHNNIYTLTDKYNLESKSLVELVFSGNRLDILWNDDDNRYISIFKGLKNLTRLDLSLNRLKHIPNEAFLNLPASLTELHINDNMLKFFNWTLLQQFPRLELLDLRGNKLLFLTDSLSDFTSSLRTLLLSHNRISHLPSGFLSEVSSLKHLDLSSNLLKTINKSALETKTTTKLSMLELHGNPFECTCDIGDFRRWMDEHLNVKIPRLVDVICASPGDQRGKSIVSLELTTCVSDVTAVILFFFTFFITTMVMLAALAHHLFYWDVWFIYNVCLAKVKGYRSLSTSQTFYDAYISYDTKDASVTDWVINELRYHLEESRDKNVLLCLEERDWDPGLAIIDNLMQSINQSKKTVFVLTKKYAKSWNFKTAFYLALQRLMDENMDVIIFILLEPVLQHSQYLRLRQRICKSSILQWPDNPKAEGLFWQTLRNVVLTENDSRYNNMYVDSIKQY
Assay: TLR8 inhibition reporter assay (HEK-Blue SEAP)
Conditions: HEK-Blue cells overexpressing human TLR8, stimulated with R848 15.9 μM, 22 hour incubation
Readout type: IC50 (nM)
Output spec: scalar in nM, unitless text.

INPUT: Tell me IC50 reported for CCc1cc2c(C3CCNCC3)n[nH]c2cc1-c1cc(C)c2ncnn2c1 [Example 82]
OUTPUT: 0.4

INPUT: Give me measured IC50, please, for this molecule: COc1cc(-c2cc3[nH]nc(C4CCC(N5CC(OC)C5)CC4)c3cc2C(C)C)cn2ncnc12 (single isomer, unassigned) [Example 148]
OUTPUT: 31.3

INPUT: Please indicate IC50 recorded for Cc1cc2c(C3CCC(NC4CC4)CC3)n[nH]c2cc1-c1cc(C)c2ncnn2c1 (stereo not shown) [Example 36]
OUTPUT: 0.2

INPUT: Quick one: give measured IC50 for Cc1cc2c(N)n[nH]c2cc1-c1cc(C)c2ncnn2c1 [Example 201]
OUTPUT: 55.7
